B1: DNA mismatch repair protein Mlh1 (Homo sapiens), P40692 (parent)
chain: MSFVAGVIRRLDETVVNRIAAGEVIQRPANAIKEMIENCLDAKSTSIQVIVKEGGLKLIQIQDNGTGIRKEDLDIVCERFTTSKLQSFEDLASISTYGFRGEALASISHVAHVTITTKTADGKCAYRASYSDGKLKAPPKPCAGNQGTQITVEDLFYNIATRRKALKNPSEEYGKILEVVGRYSVHNAGISFSVKKQGETVADVRTLPNASTVDNIRSIFGNAVSRELIEIGCEDKTLAFKMNGYISNANYSVKKCIFLLFINHRLVESTSLRKAIETVYAAYLPKNTHPFLYLSLEISPQNVDVNVHPTKHEVHFLHEESILERVQQHIESKLLGSNSSRMYFTQTLLPGLAGPSGEMVKSTTSLTSSSTSGSSDKVYAHQMVRTDSREQKLDAFLQPLSKPLSSQPQAIVTEDKTDISSGRARQQDEEMLELPAPAEVAAKNQSLEGDTTKGTSEMSEKRGPTSSNPRKRHREDSDVEMVEDDSRKEMTAACTPRRRIINLTSVLSLQEEINEQGHEVLREMLHNHSFVGCVNPQWALAQHQTKLYLLNTTKLSEELFYQILIYDFANFGVLRLSEPAPLFDLAMLALDSPESGWTEEDGPKEGLAEYIVEFLKKKAEMLADYFSLEIDEEGNLIGLPLLIDNYVPPLEGLPIFILRLATEVNWDEEKECFESLSKECAMFYSIRKQYISEESTLSGQQSEVPGSIPNSWKWTVEHIVYKALRSHILPPKHFTEDGNILQLANLPDLYKVFERC

Variants of: B1
experimental_parameters: with exo1_human EXO1, Q9UQ84
assay_readout: effect of a mutation on the interaction

Recorded results for 5 variants are shown here.
# variant_label, readout_value
records = [
    ("I219V", "with no effect"),
    ("I219L", "with no effect"),
    ("V213M", "with no effect"),
    ("V326A", "with no effect"),
    ("S406N", "with no effect"),
]

Could you now consider this next variant?
May I ask what effect of a mutation on the interaction has been recorded for `R265H` ?
with no effect
